system: zebrafish embryos and larvae; conditions: exposure from 2 dpf; at the concentration in parentheses
parameter: Phenotypic effects above MTC after 24 hours (average penetrance at least 50%)

>>> recorded_result("CCC(C)=O [Butanone (MEK), 2-butanone]")
"DD HJ"
>>> recorded_result("CC(C)O [Isopropanol, isopropanol]")
"IC LP"

----------
Here the recorded Maximum-tolerated concentration (MTC) is given for each entry.
tested on: zebrafish embryos and larvae; conditions: exposure for 24 hours beginning at 2 dpf; highest concentration with no phenotypic abnormalities; followed to 9 dpf

Solved entries:
>>> recorded_result("CO")
">2.5%"
>>> recorded_result("CC(O)COC[C@H]1O[C@@H]2O[C@H]3[C@H](O)[C@@H](O)[C@@H](O[C@H]4[C@H](O)[C@@H](O)[C@@H](O[C@H]5[C@H](O)[C@@H](O)[C@@H](O[C@H]6[C@H](O)[C@@H](O)[C@@H](O[C@H]7[C@H](O)[C@@H](O)[C@@H](O[C@H]8[C@H](O)[C@@H](O)[C@@H](O[C@H]1[C@H](O)[C@H]2O)O[C@@H]8COCC(C)O)O[C@@H]7COCC(C)O)O[C@@H]6COCC(C)O)O[C@@H]5COCC(C)O)O[C@@H]4COCC(C)O)O[C@@H]3COCC(C)O (stereo partly drawn) [Cyclodextrin (HPBCD), 2-hydroxypropyl-beta-cyclodextrin]")
"1.5%"

Switching to the query record.
Looking up CC(C)=O , I see its Maximum-tolerated concentration (MTC) listed as 1.5%

----------
test system: zebrafish embryos and larvae; details: exposure for 24 hours beginning at 4 hpf; highest concentration with no phenotypic abnormalities; followed to 9 dpf
parameter: Maximum-tolerated concentration (MTC) (%)
Respond with the bare value in %.

>>> recorded_result("CCO")
0.5
>>> recorded_result("CC(C)O")
1
>>> recorded_result("CC(C)=O")
2

Looking up CO , I see its Maximum-tolerated concentration (MTC) listed as 1.5

Looking up CC1(C)OCC(CO)O1 (centres unmarked) , I see its Maximum-tolerated concentration (MTC) listed as 0.5

Looking up CCC(C)=O , I see its Maximum-tolerated concentration (MTC) listed as 1

----------
Here the recorded Maximum-tolerated concentration (MTC) is given for each entry.
system: zebrafish embryos and larvae; settings: exposure for 24 hours beginning at 2–4 cell stage; highest concentration with no phenotypic abnormalities; followed to 9 dpf
Respond with the bare value in %.

Solved entries:
>>> recorded_result("OCC(O)CO [Glycerol]")
1.5
>>> recorded_result("CCC(C)=O [Butanone (MEK), 2-butanone]")
0.5

Summary: CC(C)O [Isopropanol, isopropanol] , zebrafish embryos and larvae, Maximum-tolerated concentration (MTC) = 0.5

Summary: CC(C)=O [Acetone, acetone] , zebrafish embryos and larvae, Maximum-tolerated concentration (MTC) = 2

----------
tested on: zebrafish embryos and larvae; settings: exposure for 24 hours beginning at 7 dpf; highest concentration with no phenotypic abnormalities; followed to 9 dpf
parameter: Maximum-tolerated concentration (MTC) (%)
Respond with the bare value in %.

Solved entries:
>>> recorded_result("CO [Methanol, methanol]")
2
>>> recorded_result("CCC(C)=O [Butanone (MEK), 2-butanone]")
0.5
>>> recorded_result("CC(O)COC[C@H]1O[C@@H]2O[C@H]3[C@H](O)[C@@H](O)[C@@H](O[C@H]4[C@H](O)[C@@H](O)[C@@H](O[C@H]5[C@H](O)[C@@H](O)[C@@H](O[C@H]6[C@H](O)[C@@H](O)[C@@H](O[C@H]7[C@H](O)[C@@H](O)[C@@H](O[C@H]8[C@H](O)[C@@H](O)[C@@H](O[C@H]1[C@H](O)[C@H]2O)O[C@@H]8COCC(C)O)O[C@@H]7COCC(C)O)O[C@@H]6COCC(C)O)O[C@@H]5COCC(C)O)O[C@@H]4COCC(C)O)O[C@@H]3COCC(C)O (stereo partly drawn) [Cyclodextrin (HPBCD), 2-hydroxypropyl-beta-cyclodextrin]")
1
>>> recorded_result("CC(O)CO (stereo not drawn) [Propylene glycol]")
1.5

Switching to the query record.
Looking up CCO [Ethanol, ethanol] , I see its Maximum-tolerated concentration (MTC) listed as 1

----------
tested on: zebrafish embryos and larvae; conditions: exposure from 5 dpf; at the concentration in parentheses
parameter: Phenotypic effects above MTC after 24 hours (average penetrance at least 50%)

>>> recorded_result("CC#N [Acetonitrile, acetonitrile]")
"IC PE"

----------
system: zebrafish embryos and larvae; settings: exposure from 3 dpf; at the concentration in parentheses
parameter: Phenotypic effects above MTC after 24 hours (average penetrance at least 50%)

>>> recorded_result("C[S+](C)[O-] [Dimethyl sulfoxide (DMSO), Dimethyl sulfoxide]")
"NB SB"
>>> recorded_result("CC#N")
"PE SB"
>>> recorded_result("CCC(C)=O")
"HJ SB"

----------
tested on: zebrafish embryos and larvae; details: exposure for 24 hours beginning at 3 dpf; highest concentration with no phenotypic abnormalities; followed to 9 dpf
Here the recorded Maximum-tolerated concentration (MTC) is given for each entry.

Looking up CC(C)O , I see its Maximum-tolerated concentration (MTC) listed as 1.5%

Looking up CO , I see its Maximum-tolerated concentration (MTC) listed as 2%

Looking up CN(C)C=O [Dimethyl formamide (DMF), Dimethyl formamide] , I see its Maximum-tolerated concentration (MTC) listed as 0.5%

Looking up C[S+](C)[O-] [Dimethyl sulfoxide (DMSO), Dimethyl sulfoxide] , I see its Maximum-tolerated concentration (MTC) listed as 1.5%

Looking up CC#N , I see its Maximum-tolerated concentration (MTC) listed as 1%

----------
test system: zebrafish embryos and larvae; details: exposure for 24 hours beginning at 5 dpf; highest concentration with no phenotypic abnormalities; followed to 9 dpf
parameter: Maximum-tolerated concentration (MTC)

Solved entries:
>>> recorded_result("CC1(C)OCC(CO)O1 (stereo not shown)")
"<0.5%"
>>> recorded_result("CCO")
"0.5%"
>>> recorded_result("CC(C)O")
"<0.5%"
>>> recorded_result("CO")
">2.5%"
>>> recorded_result("CN(C)C=O [Dimethyl formamide (DMF), Dimethyl formamide]")
"0.5%"

Looking up CC(C)=O , I see its Maximum-tolerated concentration (MTC) listed as <0.5%

Looking up CCC(C)=O , I see its Maximum-tolerated concentration (MTC) listed as <0.5%

----------
test system: zebrafish embryos and larvae; conditions: exposure for 24 hours beginning at 2 dpf; highest concentration with no phenotypic abnormalities; followed to 9 dpf
parameter: Maximum-tolerated concentration (MTC)

Looking up CN(C)C=O [Dimethyl formamide (DMF), Dimethyl formamide] , I see its Maximum-tolerated concentration (MTC) listed as 0.5%

Looking up CC1(C)OCC(CO)O1 (stereo not shown) [Solketal] , I see its Maximum-tolerated concentration (MTC) listed as 0.5%

Looking up CCC(C)=O [Butanone (MEK), 2-butanone] , I see its Maximum-tolerated concentration (MTC) listed as 1.5%

Looking up CC(O)CO (stereo not shown) [Propylene glycol] , I see its Maximum-tolerated concentration (MTC) listed as >2.5%

----------
system: zebrafish embryos and larvae; details: exposure for 24 hours beginning at 4 hpf; highest concentration with no phenotypic abnormalities; followed to 9 dpf
parameter: Maximum-tolerated concentration (MTC) (%)
Respond with the bare value in %.

>>> recorded_result("CC(O)COC[C@H]1O[C@@H]2O[C@H]3[C@H](O)[C@@H](O)[C@@H](O[C@H]4[C@H](O)[C@@H](O)[C@@H](O[C@H]5[C@H](O)[C@@H](O)[C@@H](O[C@H]6[C@H](O)[C@@H](O)[C@@H](O[C@H]7[C@H](O)[C@@H](O)[C@@H](O[C@H]8[C@H](O)[C@@H](O)[C@@H](O[C@H]1[C@H](O)[C@H]2O)O[C@@H]8COCC(C)O)O[C@@H]7COCC(C)O)O[C@@H]6COCC(C)O)O[C@@H]5COCC(C)O)O[C@@H]4COCC(C)O)O[C@@H]3COCC(C)O (stereo partly drawn) [Cyclodextrin (HPBCD), 2-hydroxypropyl-beta-cyclodextrin]")
0.5

Switching to the query record.
Looking up OCC(O)CO , I see its Maximum-tolerated concentration (MTC) listed as 1.5

----------
tested on: zebrafish embryos and larvae; details: exposure for 24 hours beginning at 4 dpf; highest concentration with no phenotypic abnormalities; followed to 9 dpf
parameter: Maximum-tolerated concentration (MTC) (%)
Respond with the bare value in %.

Solved entries:
>>> recorded_result("OCC(O)CO")
2
>>> recorded_result("CC(O)COC[C@H]1O[C@@H]2O[C@H]3[C@H](O)[C@@H](O)[C@@H](O[C@H]4[C@H](O)[C@@H](O)[C@@H](O[C@H]5[C@H](O)[C@@H](O)[C@@H](O[C@H]6[C@H](O)[C@@H](O)[C@@H](O[C@H]7[C@H](O)[C@@H](O)[C@@H](O[C@H]8[C@H](O)[C@@H](O)[C@@H](O[C@H]1[C@H](O)[C@H]2O)O[C@@H]8COCC(C)O)O[C@@H]7COCC(C)O)O[C@@H]6COCC(C)O)O[C@@H]5COCC(C)O)O[C@@H]4COCC(C)O)O[C@@H]3COCC(C)O (stereo partly drawn) [Cyclodextrin (HPBCD), 2-hydroxypropyl-beta-cyclodextrin]")
1
>>> recorded_result("CN(C)C=O [Dimethyl formamide (DMF), Dimethyl formamide]")
0.5
>>> recorded_result("CCC(C)=O")
1.5
>>> recorded_result("CC(C)O")
0.5

Switching to the query record.
Looking up CCO , I see its Maximum-tolerated concentration (MTC) listed as 1.5
